IC50 listing for selected compounds.
# test-system: recombinant human 15-PGDH (Homo sapiens, UniProt P15428)
# Construct: purchased R&D Systems
# experiment-notes: 15-PGDH enzyme inhibition test
# Format: biochemical
# condition: 4 nM recombinant human 15-PGDH, 30 μM PGE2, 1 mM NAD+, 60 minutes after starting the reaction; read-out: IC50 Value

Solved entries:
- smiles-code: "COC(=O)c1cccc(N2CCc3cc(C(=O)N4CCCCC4)ccc32)c1"
  test-system: "recombinant human 15-PGDH (Homo sapiens, UniProt P15428)"
  IC50: "< 10 nM"
- smiles-code: "CN1CCN(C(=O)c2cnc3c(c2)CCCN3c2ccn3c(=O)n(C)nc3c2)CC1"
  test-system: "recombinant human 15-PGDH (Homo sapiens, UniProt P15428)"
  IC50: "10 to 100 nM"
- smiles-code: "COc1cc(N2CCOc3cc(C(=O)N4CCC(F)(F)CC4)ccc32)ccc1C(=O)O"
  test-system: "recombinant human 15-PGDH (Homo sapiens, UniProt P15428)"
  IC50: "< 10 nM"

Now let's try a different one.
q: # lookup: IC50 of O=C(O)c1ccc(N2CCOc3cc(C(=O)N4CCC[C@@H](F)C4)cnc32)cc1
a: < 10 nM

###

The molecules listed here are annotated with their IC50.
# test-system: recombinant human 15-PGDH (Homo sapiens, UniProt P15428)
# Construct: purchased R&D Systems
# Sequence (P15428 1-266): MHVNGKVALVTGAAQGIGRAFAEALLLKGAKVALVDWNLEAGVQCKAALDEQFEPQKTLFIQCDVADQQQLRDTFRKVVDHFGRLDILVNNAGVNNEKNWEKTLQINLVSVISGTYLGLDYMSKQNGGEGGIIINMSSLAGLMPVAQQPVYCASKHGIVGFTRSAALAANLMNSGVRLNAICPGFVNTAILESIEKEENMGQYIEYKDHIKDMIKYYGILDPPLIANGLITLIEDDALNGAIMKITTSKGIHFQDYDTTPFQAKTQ
# experiment-notes: 15-PGDH enzyme inhibition test
# Format: biochemical
# condition: 4 nM recombinant human 15-PGDH, 30 μM PGE2, 1 mM NAD+, 60 minutes after starting the reaction; read-out: IC50 Value

Worked set:
- smiles-code: "O=C(O)c1cccc(N2CCOc3cc(C(=O)N4CCCCC4)ccc32)c1"
  IC50: "< 10 nM"
- smiles-code: "O=C(c1cnc2c(c1)CCCN2c1ccn2c(=O)[nH]nc2c1)N1CCC(F)(F)CC1"
  IC50: "< 10 nM"
- smiles-code: "CCOCCN1Cc2cc(N3CCOc4cc(C(=O)N5CCC(F)(F)CC5)cnc43)ncc2C1=O"
  IC50: "10 to 100 nM"

q: Item under review: CCOCCn1nc2cc(N3CCOc4cc(C(=O)N5CCC(F)(F)CC5)cnc43)ccn2c1=O . Reported IC50?
a: < 10 nM

###

# test-system: recombinant human 15-PGDH (Homo sapiens)
# Construct: purchased R&D Systems
# experiment-notes: 15-PGDH enzyme inhibition test
# Type: biochemical
# condition: 4 nM recombinant human 15-PGDH, 30 μM PGE2, 1 mM NAD+, 60 minutes after starting the reaction; read-out: IC50 Value
endpoint-name: IC50

- smiles-code: "Cn1nc2cc(N3CCOc4c3ccc(C(=O)N3CCCCC3)c4Cl)ccn2c1=O"
  IC50: "< 10 nM"

q: Would you mind telling me what IC50 value was observed for Cc1cc(N2CCOc3cc(C(=O)N4CCCCC4)ccc32)n2ncnc2n1 ?
a: > 100 nM

q: Return reported IC50; argument: Cc1cn2ccc(N3CCOc4cc(C(=O)N5CCCCC5)cnc43)cc2n1
a: 10 to 100 nM

q: Param item = O=C(O)c1ccc(N2CCOc3cc(C(=O)N4CCCCC4)ccc32)cn1 ; retrieve measured IC50.
a: < 10 nM

q: Item Cn1nc2cc(N3CCOc4cc(C(=O)N5CCC(F)CC5)cnc43)ccn2c1=O has what recorded IC50?
a: < 10 nM

q: Give the measured IC50 of Cn1nc2cc(N3CCN(c4cccnc4)c4cc(C(=O)N5CCC(F)(F)CC5)cnc43)ccn2c1=O .
a: > 100 nM

q: Any idea what its IC50 is? The compound is Cn1nc2cc(N3CCOc4cc(C(=O)N5CCCC6(CC6)C5)cnc43)ccn2c1=O
a: < 10 nM

q: Could you tell me which IC50 is on file for O=C1NCc2cc(N3CCOc4cc(C(=O)N5CCCCC5)cnc43)ncc21 ?
a: < 10 nM

###

# test-system: recombinant human 15-PGDH (Homo sapiens, UniProt P15428)
# Construct: purchased R&D Systems
# experiment-notes: 15-PGDH enzyme inhibition test
# Type: biochemical
# condition: 4 nM recombinant human 15-PGDH, 30 μM PGE2, 1 mM NAD+, 60 minutes after starting the reaction; read-out: IC50 Value
pIC50: −log10 of the molar value.
Catalogue of pIC50 readings, one per entry.

Example compounds with recorded pIC50:
- compound: "COCn1nc2cc(N3CCOc4cc(C(=O)N5CCC(F)(F)CC5)ccc43)ccn2c1=O"
  pIC50: "> 8.00"
- compound: "CC(C)(NS(C)(=O)=O)c1ccc(N2CCOc3cc(C(=O)N4CCCCC4)cnc32)cc1"
  pIC50: "< 7.00"
- compound: "NC(=O)c1ccc(N2CCOc3cc(C(=O)N4CCCCC4)cnc32)cc1F"
  pIC50: "> 8.00"
- compound: "COC(=O)c1cccc(N2CCOc3cc(C(=O)N4CCCCC4)cnc32)c1"
  pIC50: "> 8.00"
- compound: "CN(CC(C)(C)O)C(=O)c1cnc2c(c1)OCCN2c1ccn2c(=O)n(C)nc2c1"
  pIC50: "7.00 to 8.00"
- compound: "Cn1nc2cc(N3CCCOc4cc(C(=O)N5CCCCC5)cnc43)ccn2c1=O"
  pIC50: "> 8.00"

q: For the compound shown here, CN1Cc2cc(N3CCOc4cc(C(=O)N5CCC(F)(F)CC5)ccc43)ncc2C1=O , give the reported pIC50.
a: > 8.00

q: Entry O=C(c1cnc2c(c1)CCCN2c1ccn2c(=O)n(CC3COC3)nc2c1)N1CCCCC1 has what pIC50?
a: > 8.00

q: Need pIC50 of Cn1nc2cc(N3CCOc4cc(C(=O)N5CCC6CC6C5)cnc43)ccn2c1=O (stereo not drawn) , thanks.
a: > 8.00

q: Endpoint output: pIC50 of CCN1Cc2cc(N3CCCc4cc(C(=O)N5CCC[C@@H](C(F)F)C5)cnc43)ccc2C1=O . Value?
a: > 8.00

q: What pIC50 value was documented for this compound, Cn1nc2cc(N3CCOc4cc(C(=O)N5CCC[C@H](C(F)(F)F)C5)cnc43)ccn2c1=O ?
a: > 8.00

q: Fill in the blank: the reported pIC50 of Cn1nc2cc(N3CCOc4cc(C(=O)N5CCCC(C)(F)C5)cnc43)ccn2c1=O (stereo not drawn) [Example 8-48] is ____.
a: > 8.00

###

# test-system: recombinant human 15-PGDH (Homo sapiens, UniProt P15428)
# Construct: purchased R&D Systems
# Sequence (P15428 1-266): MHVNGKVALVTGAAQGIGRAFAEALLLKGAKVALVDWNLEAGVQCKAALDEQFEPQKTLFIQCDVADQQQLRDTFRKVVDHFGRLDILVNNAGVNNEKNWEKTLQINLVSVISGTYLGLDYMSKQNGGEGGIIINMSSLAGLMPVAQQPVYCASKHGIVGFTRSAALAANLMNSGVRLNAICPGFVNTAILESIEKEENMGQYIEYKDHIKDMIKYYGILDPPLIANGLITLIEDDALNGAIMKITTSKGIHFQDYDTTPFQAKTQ
# experiment-notes: 15-PGDH enzyme inhibition test
# Format: biochemical
# condition: 4 nM recombinant human 15-PGDH, 30 μM PGE2, 1 mM NAD+, 60 minutes after starting the reaction; read-out: IC50 Value
pIC50: −log10 of the molar value.
endpoint-name: pIC50

Some entries whose results are on file:
- compound: "CN1Cc2cc(N3CCOc4cc(C(=O)N5CCC[C@@H](CF)C5)cnc43)ccc2C1=O"
  pIC50: "> 8.00"
- compound: "COc1cc(N2CCOc3cc(C(=O)N4CCCCC4)cnc32)ccc1C(=O)O"
  pIC50: "7.00 to 8.00"
- compound: "CCOCCN1Cc2cc(N3CCCc4cc(C(=O)N5CCC(F)(F)CC5)cnc43)ncc2C1=O"
  pIC50: "7.00 to 8.00"
- compound: "CNC(=O)c1ccc(N2CCOc3cc(C(=O)N4CCCCC4)cnc32)c(C)c1"
  pIC50: "< 7.00"
- compound: "COc1c(C(=O)N2CCCCC2)ccc2c1OCCN2c1ccc(C(=O)O)cc1"
  pIC50: "> 8.00"
- compound: "COc1ccc(N2CCCc3cc(C(=O)N4CCCCC4)cnc32)cc1"
  pIC50: "7.00 to 8.00"

q: For the compound Cn1nc2cc(N3CCCc4cc(C(=O)N5CCCC(C)(F)C5)cnc43)ccn2c1=O (stereo not drawn) , what pIC50 is on record?
a: > 8.00

q: Field request: pIC50 | item: COCN1Cc2cc(N3CCCc4cc(C(=O)N5CCCCC5)cnc43)ccc2C1=O
a: > 8.00

q: Fill in: pIC50 of Cn1nc2cc(N3CCOc4cc(C(=O)N5CCC(C)(C)C5)cnc43)ccn2c1=O is ___
a: > 8.00

q: Which pIC50 is listed for CCn1nc2cc(N3CCCc4cc(C(=O)N5CCC[C@@H](C)C5)cnc43)ccn2c1=O ?
a: > 8.00

q: Endpoint output: pIC50 of COCn1nc2cc(N3CCOc4cc(C(=O)N5CCC[C@H](C)C5)cnc43)ccn2c1=O . Value?
a: > 8.00
